Values compiled from the METLIN SMRT retention time set (Domingo-Almenara et al. 2019).

- Assay explanation: gradient 5% acetonitrile 3 min, to 50% in 2 min, to 85% in 15 min, held 3 min, 100 µL/min
- Condition info: column: Zorbax Extend-C18 2.1 x 50 mm; eluents: water / acetonitrile, 0.1% formic acid

| Molecule | RP-LC retention time (s) |
| --- | --- |
| CCOc1nc2ccccc2nc1N1CCCC(C(=O)N2CCN(c3ccc(OC)cc3)CC2)C1 (stereo not given) | 1190 |
| C=CCNC(=O)CCc1c(-c2ccc(Cl)cc2)nc2ccccn12 | 615 |
| CCOC(=O)N1CCN(CC(O)COc2c(F)cc(Br)cc2F)CC1 (stereo not given) | 591 |
| Cc1cccc(Nc2c(-c3ccc(C(=O)O)cc3)nc3cnccn23)c1C | 780 |
| O=C(NCCc1csc(C2CCCN(C(=O)C3CCCC3)C2)n1)C1CCC1 (stereo not given) | 718 |
| CCc1nc2cc(N3CCC(C(=O)N4CCN(CC)CC4)CC3)cnc2nc1CC | 590 |
| COc1ccc2[nH]c(=O)c(CCC(=O)NCC(C)C)cc2c1 | 660 |
| C=CCn1ccc2c(OCC(=O)Nc3ccc4c(c3)OCCO4)cccc2c1=O | 818 |
| CCCc1noc(-c2ccc(-n3cnc(C(=O)NC4CCCC4)c3)nc2)n1 | 915 |
| CCOC(=O)c1c(C)oc2nc(C)nc(Nc3cc(C)ccc3OC)c12 | 1350 |

----------
Listed next: entries and their corresponding RP-LC retention time.
- Assay explanation: gradient 5% acetonitrile 3 min, to 50% in 2 min, to 85% in 15 min, held 3 min, 100 µL/min
- Condition info: column: Zorbax Extend-C18 2.1 x 50 mm; eluents: water / acetonitrile, 0.1% formic acid
Parameter: RP-LC retention time (s)

| Molecule | Parameter | Result units | Reported value |
| --- | --- | --- | --- |
| COc1ccc(-c2cc3c4nn(CC(=O)N5CCCc6ccccc65)c(=O)n4ccn3n2)cc1 | RP-LC retention time | s | 937 |
| COc1ccc2[nH]cc(CCNC(=O)c3cc(Cl)ccc3OC)c2c1 | RP-LC retention time | s | 883 |
| Cc1nc(Nc2ccccc2)sc1C(=O)Nc1cccc(F)c1 | RP-LC retention time | s | 998 |
| O=C(Cn1c(=O)c2cccn2c2ccc(F)cc21)NCCCN1CCCCCC1 | RP-LC retention time | s | 627 |
| Cc1oc(-c2ccc(NC(=O)C3CCC3)cc2)nc1Cn1cccn1 | RP-LC retention time | s | 799 |
| COc1cc2c(cc1Oc1ccc(OC)c3c1CC1c4c(cc(OC)c(OC)c4-3)CCN1C)CC1c3c(cc(OC)c(OC)c3-2)CCN1C (stereo not given) | RP-LC retention time | s | 616 |
| O=c1n(CC2CC2)nc2n1CCN(Cc1cccc(O)c1)C2 | RP-LC retention time | s | 610 |
| CCC(=O)Nc1ccc2c(c1)CN(C(=O)c1ccccc1Cl)C(C(=O)N1CCCC1)C2 (stereo not given) | RP-LC retention time | s | 714 |
| CN(C1CCc2nn(CC3CC3)c(=O)n2CC1)S(=O)(=O)c1ccc(C(F)(F)F)cc1 (stereo not given) | RP-LC retention time | s | 876 |
| CC(C)(C)CC(C)(C)NCC(O)COC(C)(C)C (stereo not given) | RP-LC retention time | s | 588 |
| COc1ccc(N2CC(c3nc(-c4ccc(CNC(=O)C5CC5)s4)no3)CC2=O)cc1 (stereo not given) | RP-LC retention time | s | 748 |
| CCn1c(=O)c(SCC(=O)NCCCN2CCCCC2C)nc2ccccc21 (stereo not given) | RP-LC retention time | s | 602 |
| COc1ccc(F)cc1S(=O)(=O)N1C[C@@H]2C[C@H]1C[C@@H]2NC(=O)c1ccccc1 | RP-LC retention time | s | 786 |
| Cc1ccc(Cn2cccc2C(=O)C(=O)NC2CC2)cc1 | RP-LC retention time | s | 928 |
| CCn1c(-c2cccc(C(=O)NC3CCCCC3)c2)nc2cccnc21 | RP-LC retention time | s | 780 |
| COc1cccc(CN2CCc3nn(CC4CC4)c(=O)n3CC2)n1 | RP-LC retention time | s | 595 |
| COc1ccc(NC(=O)c2cnc(N3CCN(C(=O)c4ccco4)CC3)nc2N)cc1 | RP-LC retention time | s | 593 |
| CNc1nccc(N2CCC(CC(=O)NCCCN3CCCC3=O)CC2)n1 | RP-LC retention time | s | 490 |
| CCN(CCNS(=O)(=O)c1ccc2c(c1)CCCC(=O)N2)Cc1ccccc1 | RP-LC retention time | s | 608 |
| Cc1cccc(NC(=O)NCC2CCOCC2)c1C | RP-LC retention time | s | 704 |
